Numbers sourced from ChEMBL document CHEMBL4513216.

# assay.explanation: Toxicity liver stage against HepG2, at 10uM
# Type: cell-based
# Set-up: test concentration 10 uM, cell line HepG2-A16-CD81EGFP
# condition.label: human, HepG2-A16-CD81EGFP cells; read-out: INHIBITION
assay.readout: cytotoxicity at 10 µM

> print(dat)
                                    compound  measured.value
 1               Fc1cccc(Cl)c1CNCCCOc1ccccn1          -3.33%
 2  Cc1cc(N2CCN(Cc3ccc(-c4cc[nH]n4)o3)CC2)cc(C)n1           2.17%
 3           CCOc1ccc(-c2ccnc(C)n2)cc1C(=O)O           5.59%
 4  CN(C)Cc1cccc(-c2cccnc2C(=O)NCc2cn(C)cn2)c1           4.09%
 5  O=C(O)c1ccccc1C1CCN(C2Cc3ccccc3C2)C1 (stereo not drawn)           12.7%
 6  CC1CCN(C(=O)c2cc(NC(=O)c3ccccc3)n(C)n2)CC1           5.17%
 7  Cn1cc(CN2CC[C@H]3O[C@H](C(=O)NCc4ccco4)CC[C@H]32)cn1          -1.85%
 8  Cc1cc(C)cc(C(C(=O)O)N(C)CCCN2CCOCC2)c1 (stereo not drawn)           6.03%
 9  Cc1nccc(CNC(=O)Nc2cc(C(F)(F)F)c[nH]c2=O)n1          -1.16%
10   CC(=O)N1CCC2(C1)CN(S(=O)(=O)c1ccccc1)C2           3.82%
11  O=C(c1cnccn1)N1CCCC(Cn2cc(C3CC3)nn2)C1 (stereo not drawn)           -5.9%
12  Cc1noc(C)c1CCC(=O)N[C@@H]1CC[C@@H](Oc2cccnc2)[C@@H]1O          -2.62%
13        CS(=O)(=O)N1CCCC12CCN(Cc1ccoc1)CC2          -3.98%
14    Cc1nc(C(=O)N(Cc2c(C)nn(C)c2C)C(C)C)cs1           3.57%
15  Cc1ccccc1N1CCN(c2ccncn2)C(C)C1 (stereo not drawn)           22.6%
16  Cc1cc(-c2cnn(CCNC(=O)c3cnn(C)c3)c2C2CC2)on1          -5.58%
17     Cc1ccc(CN(CCCn2ccnc2)Cc2cc(F)ccc2F)s1          -13.2%
18  CC(C)C(C)(O)CNC(=O)Nc1ccccn1 (stereo not drawn)           4.77%
19  CCn1nccc1C(=O)NC(Cn1cccn1)C(C)(C)C (stereo not drawn)          -9.24%
20  N#Cc1cccc(CN2C[C@H](NC(=O)C3CC3)[C@H]3OCCC[C@H]32)c1         -0.155%
21  Cc1nc(CNC(=O)NC2CCN(c3cccc(Cl)c3)C2)no1 (stereo not drawn)          0.636%
22  COc1cccc(COC(C)C(=O)N(C)Cc2nnc3n2CCC3)c1 (stereo not drawn)           6.32%
23  COCCNC(=O)[C@H]1CN2CCC1C[C@@H]2Cn1cc(C(C)(C)C)nn1 (stereo partly drawn)           7.95%
